Here, each record is paired with measured inhibition data.
target: Serine/threonine-protein kinase 25 (Homo sapiens) (UniProt O00506); test: Inhibition of YSK1 in human NCI-H929 cells at 10 uM by mass spectroscopic analysis relative to control; type: cell-based
Sequence (O00506 whole entry, looked up): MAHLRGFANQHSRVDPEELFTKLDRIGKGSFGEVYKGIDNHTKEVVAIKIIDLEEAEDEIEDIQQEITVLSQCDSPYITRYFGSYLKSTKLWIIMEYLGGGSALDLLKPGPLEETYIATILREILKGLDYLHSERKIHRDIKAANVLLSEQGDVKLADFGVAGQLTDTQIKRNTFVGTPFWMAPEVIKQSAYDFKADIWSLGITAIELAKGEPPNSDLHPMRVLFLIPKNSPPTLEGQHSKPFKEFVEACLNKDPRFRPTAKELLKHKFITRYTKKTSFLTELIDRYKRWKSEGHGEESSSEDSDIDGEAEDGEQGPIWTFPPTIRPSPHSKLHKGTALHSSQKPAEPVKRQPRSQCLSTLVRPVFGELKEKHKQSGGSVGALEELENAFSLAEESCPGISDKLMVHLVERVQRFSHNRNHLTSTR
RESULT TYPE: inhibition (%)

[[record]]
smiles_string = "Nc1ncc(-c2cccc3ncsc23)cc1-c1ccc2c(c1)CCNC2=O"
result_type = "inhibition"
sign = "="
test_value = 0

[[record]]
smiles_string = "CN(C1CC1)S(=O)(=O)c1ccc(-c2cnc(N)c(-c3ccc4c(c3)CCNC4=O)c2)c(F)c1"
result_type = "inhibition"
sign = "<"
test_value = 90

[[record]]
smiles_string = "Nc1ncc(-c2ccc(NS(=O)(=O)C3CC3)cc2F)cc1-c1ccc2c(c1)CCNC2=O"
result_type = "inhibition"
sign = "<"
test_value = 75

[[record]]
smiles_string = "Nc1ncc(-c2cccc([N+](=O)[O-])c2F)cc1-c1ccc2c(c1)CCNC2=O"
result_type = "inhibition"
sign = "="
test_value = 0

[[record]]
smiles_string = "COc1cc(NS(=O)(=O)C2CC2)ccc1-c1cnc(N)c(-c2ccc3c(c2)CCNC3=O)c1"
result_type = "inhibition"
sign = "="
test_value = 0

